System: TNIK;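 also: KINOMEscan kinase panel screen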
Conditions: concentration: 1 μM,replicates: in singlicate; n = 1
Parameter: %Inh (%)

Compound	Parameter	U	Result number
Cc1ccc2c(-c3ccncc3)c(-c3ccc(F)cc3)nn2c1.Cl [GW461484]	%Inh	%	66
O=C(NCCNc1ccnc(NCc2ccc(F)cc2)n1)c1cc2ccccc2s1 [GSK1379944]	%Inh	%	0
Cl.Oc1cc(-c2nc(-c3ccccc3)[nH]c2-c2ccncc2)ccc1Cl [SB-386023]	%Inh	%	23
Cc1occc1-c1nc(N)c(OC[C@@H](N)Cc2c[nH]c3ccccc23)cc1-c1cc2c(C)n[nH]c2cn1 [GSK1660450]	%Inh	%	95.7
C[C@H]1Oc2cc(cnc2N)-c2c(nn(C)c2C#N)CN(C)C(=O)c2ccc(F)cc21	%Inh	%	0
CC(C)N1C(=O)Cc2cc(Nc3ncc(C(F)(F)F)c(NCc4cccc(S(C)(=O)=O)c4)n3)ccc21	%Inh	%	20
Cl.Cl.NC[C@H](CC1CCCCC1)NC(=O)c1cc(Br)c(-c2ccnc3[nH]ccc23)s1 [GSK1581427]	%Inh	%	0
Cc1n[nH]c2ccc(-c3cc(OC[C@@H](N)Cc4ccccc4)cnc3-c3ccoc3)cc12.O=C(O)C(F)(F)F.O=C(O)C(F)(F)F [GSK507358]	%Inh	%	96.5
C[C@@H](Oc1cc(-c2cnn(C3CCNCC3)c2)cnc1N)c1c(Cl)ccc(F)c1Cl	%Inh	%	0
Cc1cc(C(=O)Nc2ccc(Oc3ccc4nc(NC(=O)C5CC5)cn4n3)cc2)nn1-c1ccccc1	%Inh	%	12
CC(C)Nc1cc(-c2ccc3c(N)n[nH]c3c2)nc(N)n1 [GSK2221681]	%Inh	%	0
CCn1c(-c2nonc2N)nc2c(C#CC(C)(C)O)nc(OCCN)cc21.Cl.Cl [GSK902056]	%Inh	%	0
Cc1cc2cn[nH]c2cc1-c1cccc2c(N)c(C(N)=O)nnc12	%Inh	%	0
COc1ccc(C[C@@H](CN)NC(=O)c2cc(Br)c(-c3ccnc4[nH]ccc34)s2)cc1.Cl.Cl [GSK1389063]	%Inh	%	30
O=C(NCCCN1CCOC1=O)c1cnc(NCc2cc(Cl)ccc2Cl)nc1NC1CCCC1	%Inh	%	17
CNC(=O)c1ccccc1Sc1ccc2c(/C=C/c3ccccn3)n[nH]c2c1	%Inh	%	49
Nc1nc(Nc2ccccc2)cc(-c2ccc3c(N)n[nH]c3c2)n1 [GSK2225749]	%Inh	%	46
NC(=O)c1cc(-c2ccccc2)cc2c(C3CCNCC3)c[nH]c12 [GSK301362]	%Inh	%	36
